Molecular target: recombinant human DPPI (Cathepsin C) (Homo sapiens (Human), UniProt P53634)
Sequence (P53634 231-394): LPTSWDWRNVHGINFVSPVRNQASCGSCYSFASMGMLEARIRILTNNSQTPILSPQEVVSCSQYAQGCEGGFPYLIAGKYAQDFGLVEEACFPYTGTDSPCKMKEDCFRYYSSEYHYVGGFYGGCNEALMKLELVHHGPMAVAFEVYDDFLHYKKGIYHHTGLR
Sequence (P53634 395-463): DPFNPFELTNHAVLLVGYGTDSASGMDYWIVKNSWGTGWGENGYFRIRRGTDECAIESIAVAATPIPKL
Sequence (P53634 25-134): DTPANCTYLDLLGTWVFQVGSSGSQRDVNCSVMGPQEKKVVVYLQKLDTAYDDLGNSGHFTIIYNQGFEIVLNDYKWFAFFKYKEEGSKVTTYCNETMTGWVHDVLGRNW
Assay: Inhibition of human DPPI (Cathepsin C)
Conditions: substrate Gly-Arg-AMC
parameter: IC50 (nM)

>>> numeric_readout("Cc1nn(C)cc1-c1ccc(C[C@@H](C#N)NC(=O)[C@H]2N[C@@H]3CC[C@H]2C3)c(F)c1 [Example 160]")
1.7
>>> numeric_readout("N#CC(Cc1ccc2c(c1)c(=O)[nH]c1c(F)cc(C(N)=O)cc12)NC(=O)[C@H]1N[C@@H]2CC[C@H]1C2 (some centres unmarked) [Example 291]")
5.9
>>> numeric_readout("N#C[C@H](Cc1ccc(-c2csc(C(=O)N3CCN4CCOCC4C3)c2)cc1F)NC(=O)[C@H]1N[C@@H]2CC[C@H]1C2 (some centres unmarked) [Example 234]")
3.8
>>> numeric_readout("N#C[C@H](Cc1ccc(-c2cnn(CC3CCOC3)c2)cc1F)NC(=O)[C@H]1N[C@@H]2CC[C@H]1C2 (some centres unmarked) [Example 21]")
3.1
>>> numeric_readout("N#C[C@H](Cc1ccc(-c2cnc(C3CC3)s2)cc1F)NC(=O)[C@H]1N[C@@H]2CC[C@H]1C2 [Example 173]")
5.5
>>> numeric_readout("N#C[C@H](Cc1ccc(N2CCNCC2)cc1F)NC(=O)[C@H]1N[C@@H]2CC[C@H]1C2 [Example 204]")
24.5
>>> numeric_readout("CCc1cc(-c2ccc(C[C@@H](C#N)NC(=O)[C@H]3N[C@@H]4CC[C@H]3C4)c(F)c2)nn1CC(C)C [Example 273]")
28.9
>>> numeric_readout("N#C[C@H](Cc1ccc(N2CCOCC2)cc1F)NC(=O)[C@H]1N[C@@H]2CC[C@H]1C2 [Example 205]")
25.9
>>> numeric_readout("N#Cc1sccc1-c1ccc(C[C@@H](C#N)NC(=O)[C@H]2N[C@@H]3CC[C@H]2C3)c(F)c1 [Example 85]")
14
>>> numeric_readout("N#C[C@H](Cc1ccc2c(c1)c(=O)[nH]c1cc(C(F)(F)F)ccc12)NC(=O)[C@H]1N[C@@H]2CC[C@H]1C2 [Example 301]")
4.5
>>> numeric_readout("N#C[C@H](Cc1ccc(-c2cnn(C[C@@H]3CCCO3)c2)cc1F)NC(=O)[C@H]1N[C@@H]2CC[C@H]1C2 [Example 261]")
4.2
>>> numeric_readout("Cc1nc(C)c(-c2ccc(C[C@@H](C#N)NC(=O)[C@H]3N[C@@H]4CC[C@H]3C4)c(F)c2)s1 [Example 80]")
12.4
>>> numeric_readout("N#C[C@H](Cc1ccc(N2CCN(CC3CCCO3)CC2)cc1F)NC(=O)[C@H]1N[C@@H]2CC[C@H]1C2 (some centres unmarked) [Example 154]")
13.5
>>> numeric_readout("N#C[C@H](Cc1ccc(-c2ccc(C(=O)N3CCCCC3)cc2)cc1F)NC(=O)[C@H]1N[C@@H]2CC[C@H]1C2 [Example 210]")
49.4
